Test system: 997537-175-T-J1-PDC complex spheroid viability;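 also: spheroids exposed to the agents for 7 days; 100% = DMSO vehicle control viability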
Test: Anticancer human tumor 997537-175-T-J1-PDC patient-derived colon adenocarcinoma cell line growth inhibition [GQUAD]
Settings: second compound 0.1 µM; first compound 3.16 µM; hits give low values
QUANTITY_KIND: viability, T/C (%)
Write the value in % as a bare number.

compound="CC(C)n1c(=O)n(C)c2cnc3cc(F)c(-c4ccc(OCCCN5CCCCC5)nc4)cc3c21 + Cc1[nH]c2ccc(F)cc2c1-c1nc2c3cccnc3c3ncccc3c2[nH]1" tested_system="997537-175-T-J1-PDC complex spheroid viability" quantity_kind="viability, T/C" measured_value=108
compound="CCCS(=O)(=O)Nc1ccc(F)c(C(=O)c2c[nH]c3ncc(-c4ccc(Cl)cc4)cc23)c1F + Cc1[nH]c2ccc(F)cc2c1-c1nc2c3cccnc3c3ncccc3c2[nH]1" tested_system="997537-175-T-J1-PDC complex spheroid viability" quantity_kind="viability, T/C" measured_value=71.6
compound="O=C(c1cc(Cc2n[nH]c(=O)c3ccccc23)ccc1F)N1CCN(C(=O)C2CC2)CC1 + Cc1[nH]c2ccc(F)cc2c1-c1nc2c3cccnc3c3ncccc3c2[nH]1" tested_system="997537-175-T-J1-PDC complex spheroid viability" quantity_kind="viability, T/C" measured_value=89.5
compound="COc1ccc([C@@H](O)c2cc(-c3ncnc4cc(N5CCOCC5)ccc34)c(F)cc2Cl)nn1 + CN(C)c1ccc(Nc2c3ccc(NC(=O)CCN4CCCC4)cc3nc3cc(NC(=O)CCN4CCCC4)ccc23)cc1" tested_system="997537-175-T-J1-PDC complex spheroid viability" quantity_kind="viability, T/C" measured_value=78
compound="Nc1ccn(C2OC(CO)C(O)C2(F)F)c(=O)n1 (stereo unspecified) + Cc1cnc(CNC(=O)c2c(=O)c3ccc(N4CCCN(C)CC4)nc3n3c2sc2ccccc23)cn1" tested_system="997537-175-T-J1-PDC complex spheroid viability" quantity_kind="viability, T/C" measured_value=89.4
compound="CC1COCCN1c1cc(-c2ccnn2C)c2ccnc(-c3ccn[nH]3)c2n1 (stereo unspecified) + CN(C)c1ccc(Nc2c3ccc(NC(=O)CCN4CCCC4)cc3nc3cc(NC(=O)CCN4CCCC4)ccc23)cc1" tested_system="997537-175-T-J1-PDC complex spheroid viability" quantity_kind="viability, T/C" measured_value=40.1
compound="CC(C)n1c(=O)n(C)c2cnc3cc(F)c(-c4ccc(OCCCN5CCCCC5)nc4)cc3c21 + CN(C)c1ccc(Nc2c3ccc(NC(=O)CCN4CCCC4)cc3nc3cc(NC(=O)CCN4CCCC4)ccc23)cc1" tested_system="997537-175-T-J1-PDC complex spheroid viability" quantity_kind="viability, T/C" measured_value=96.2
compound="O=C(NO)c1cnc(N2CCN(S(=O)(=O)c3ccc4ccccc4c3)CC2)nc1 + CN(C)c1ccc(Nc2c3ccc(NC(=O)CCN4CCCC4)cc3nc3cc(NC(=O)CCN4CCCC4)ccc23)cc1" tested_system="997537-175-T-J1-PDC complex spheroid viability" quantity_kind="viability, T/C" measured_value=18

State the recorded viability, T/C for this entry: C=CCn1c(=O)c2cnc(Nc3ccc(N4CCN(C)CC4)cc3)nc2n1-c1cccc(C(C)(C)O)n1 + CN(C)c1ccc(Nc2c3ccc(NC(=O)CCN4CCCC4)cc3nc3cc(NC(=O)CCN4CCCC4)ccc23)cc1 41.2

Now consider O=c1[nH]cc(F)c(=O)[nH]1 + Cc1cnc(CNC(=O)c2c(=O)c3ccc(N4CCCN(C)CC4)nc3n3c2sc2ccccc23)cn1 and answer again. 102

Now consider COc1ncnc(C2CC2)c1-c1ncc2cnn(Cc3ccc(-c4nc(C(F)(F)F)cn4C(C)C)cc3)c2n1 + CN(C)c1ccc(Nc2c3ccc(NC(=O)CCN4CCCC4)cc3nc3cc(NC(=O)CCN4CCCC4)ccc23)cc1 and answer again. 81.4
